Hey, just so you know, these numbers are from patent US20240343699A1.

experiment_notes: in vivo
assay_context: male, beagle, dog, plasma, po, 80 mg/kg
measured_metric: AUC(0-inf) (ng·h/mL)
Enter your answer as a number in ng·h/mL; do not include the unit.

Qu. Given CCOc1ccccc1OC[C@@H]1CN(C(=O)OC(OC(=O)[C@H](N)C(C)C)C(C)C)CCO1 (stereo partly shown) , state its recorded AUC(0-inf).
Ans. 1200

----------
experiment_notes: Metabolic stability in dog liver S9
Type: in vitro ADME, Beagle dog
assay_context: Beagle, pH 7.2; dog liver S9, 1 μM; read-out: CLint(LS9)
Below: a set of entries, each annotated with reported microsomal CLint at 1 μM.
# unit: µL/min/mg | format: bare number

Some compounds with recorded microsomal CLint at 1 μM:
CCOc1ccccc1OC[C@@H]1CN(C(=O)OC(OC(=O)[C@@H](N)C(C)C)C(C)C)CCO1 (stereo partly drawn); 190
CCOc1ccccc1OC[C@@H]1CN(C(=O)OC(OC(=O)[C@H](N)C(C)C)C(C)C)CCO1 (stereo partly drawn); 115

Query compound follows.
Qu. Record request: microsomal CLint at 1 μM value, item CCOc1ccccc1OC[C@@H]1CN(C(=O)OC(C)OC(=O)[C@@H](N)C(C)C)CCO1 (stereo partly drawn)
Ans. 126

----------
experiment_notes: in vivo
assay_context: female, beagle, dog, plasma, po, 80 mg/kg
measured_metric: half-life (h)
Just the number please, in h, no unit attached.

Qu. Param item = CCOc1ccccc1OC[C@@H]1CN(C(=O)OC(OC(=O)[C@H](N)C(C)C)C(C)C)CCO1 (stereo partly shown) ; retrieve measured half-life.
Ans. 4.73

----------
# microsomal CLint at 1 μM values compiled below
experiment_notes: Metabolic stability in human intestinal homogenate
Format: in vitro ADME
assay_context: pH 7.2; human intestinal homogenate, 1 μM; read-out: CLint(HIH)
Answer format: numeric, µL/min/mg implied, no suffix.

CCOc1ccccc1OC[C@@H]1CN(C(=O)OC(OC(=O)[C@H](N)C(C)C)C(C)C)CCO1 (some centres unmarked); 192

Qu. Query (compound): CCOc1ccccc1OC[C@@H]1CN(C(=O)OC(OC(=O)[C@@H](N)C(C)C)C(C)C)CCO1 (some centres unmarked) ; field requested: microsomal CLint at 1 μM
Ans. 135

----------
experiment_notes: Preclinical PK after intraperitoneal dosing of COMPOUND D, COMPOUND B and viloxazine
Format: in vivo, mouse
assay_context: mouse, plasma, ip, 10.948 mg/kg, COMPOUND B IP 10.948 mg/kg; individual mice; read-out: Tmax, plasma COMPOUND B
measured_metric: Tmax (min)
Quick note: give the figure in min, leave out the unit.

Qu. Quick one: Tmax for CCOc1ccccc1OC[C@@H]1CN(C(=O)OC(OC(=O)[C@@H](N)C(C)C)C(C)C)CCO1 (stereo partly shown) [COMPOUND B] ?
Ans. 15

----------
experiment_notes: Preclinical PK after intraperitoneal dosing of COMPOUND D, COMPOUND B and viloxazine
Format: in vivo, mouse
assay_context: CD-1, mouse, plasma, ip, 10.978 mg/kg, COMPOUND D IP 10.978 mg/kg; 24.0 h; individual mice
measured_metric: concentration at 24 h (ng/mL)
Give a bare numeral; the unit ng/mL is implied.

Qu. Item under review: CCOc1ccccc1OCC1CN(C(=O)OC(C)OC(=O)[C@H](N)C(C)C)CCO1 (stereo partly shown) . Reported concentration at 24 h?
Ans. 3.48
